Please respond with reported activation at 100 µM for every item in the list.
TARGET_DESC: Drosophila OR98a (Drosophila melanogaster, UniProt Q9VAZ3)
Construct: expressed in transfected cells
Sequence (Q9VAZ3 whole entry, one chain of several): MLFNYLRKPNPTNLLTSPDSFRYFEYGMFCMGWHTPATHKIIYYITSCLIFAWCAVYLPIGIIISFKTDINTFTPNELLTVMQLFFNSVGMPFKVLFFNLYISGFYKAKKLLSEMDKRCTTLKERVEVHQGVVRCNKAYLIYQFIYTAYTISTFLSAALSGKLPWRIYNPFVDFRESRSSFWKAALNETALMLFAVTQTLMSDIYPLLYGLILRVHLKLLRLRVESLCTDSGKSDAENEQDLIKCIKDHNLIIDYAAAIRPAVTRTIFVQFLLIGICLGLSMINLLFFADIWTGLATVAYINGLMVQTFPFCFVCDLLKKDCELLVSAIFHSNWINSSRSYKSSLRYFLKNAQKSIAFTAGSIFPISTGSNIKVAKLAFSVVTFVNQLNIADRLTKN
ASSAY_TEXT: Calcium ion fluorescence (GCaMP6) assay, OR98a stable HEK293 cell line;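 also: ligand concentrations in µM final VOC concentration in well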
Assay type: cell-based
PROTOCOL_CONDITIONS: HEK293, read-out: OR98a Average response (VUAA1-normalized)

MOLECULE: CC/C=C\CCOC(C)=O [z3-hexenyl acetate]
activation at 100 µM: 10%
--
MOLECULE: CC(=O)OCCC(C)C [isopentyl acetate]
activation at 100 µM: 31%
--
MOLECULE: C=CC(O)CCCCC (centres unmarked)
activation at 100 µM: 21%
--
MOLECULE: COC(=O)c1ccccc1 [methyl benzoate]
activation at 100 µM: 12%
--
MOLECULE: CCOC(=O)c1ccccc1 [ethyl benzoate]
activation at 100 µM: 20%

Hi, could you look up activation at 100 µM for each item in my list?
1. CCCCCCCCCCCCCC
2. CCCCC(C)O (centres unmarked)
3. CCCCCC(C)O (centres unmarked)
4. CCCCCOC(C)=O [pentyl acetate]
5. CCCCCC(O)CC (centres unmarked)
6. CCCCCC(C)=O
7. OCCc1ccccc1
8. CCCOC(C)=O [propyl acetate]

Output line:
1. 10%
2. 14%
3. 16%
4. 14%
5. 13%
6. 11%
7. 12%
8. 11%

Sample CCCCCC(=O)CC ; activation at 100 µM observed: 16%

---

TARGET_DESC: Drosophila OR10a (Drosophila melanogaster, UniProt Q9VYZ1)
Construct: expressed in transfected cells
Sequence (Q9VYZ1 whole entry, one chain of several): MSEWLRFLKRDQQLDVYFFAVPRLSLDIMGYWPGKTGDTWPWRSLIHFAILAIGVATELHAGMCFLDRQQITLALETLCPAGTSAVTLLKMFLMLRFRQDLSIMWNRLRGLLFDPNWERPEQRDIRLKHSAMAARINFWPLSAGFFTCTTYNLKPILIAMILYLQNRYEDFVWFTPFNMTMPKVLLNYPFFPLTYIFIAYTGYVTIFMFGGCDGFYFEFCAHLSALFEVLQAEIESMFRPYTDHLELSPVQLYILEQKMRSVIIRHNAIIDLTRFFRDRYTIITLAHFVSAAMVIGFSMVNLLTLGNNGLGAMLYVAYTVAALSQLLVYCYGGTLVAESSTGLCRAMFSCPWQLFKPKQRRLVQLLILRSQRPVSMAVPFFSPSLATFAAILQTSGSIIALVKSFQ
ASSAY_TEXT: Calcium ion fluorescence (GCaMP6) assay, OR10a stable HEK293 cell line
Format: cell-based
PROTOCOL_CONDITIONS: HEK293, read-out: OR10a Average response (VUAA1-normalized), 100 μM VOC; 50 μM VUAA1 = 1; responses not exceeding 0.05 considered 0
METRIC: activation at 100 µM
The reply should read as a number followed by its unit.

COMPOUND_STRING: Cc1cccc(C)c1
TARGET_DESC: Drosophila OR10a (Drosophila melanogaster, UniProt Q9VYZ1)
RECORDED_MEASUREMENT: 2%
--
COMPOUND_STRING: Cc1ccccc1C
TARGET_DESC: Drosophila OR10a (Drosophila melanogaster, UniProt Q9VYZ1)
RECORDED_MEASUREMENT: 0%

API: the following record is the query input.
Lab entry: Drosophila OR10a (Drosophila melanogaster, UniProt Q9VYZ1) assay, compound CCCCC(C)=O , activation at 100 µM = 0%

---

Please respond with reported OR13a response (VUAA1-normalized) at 100 μM for every item in the list.
TARGET_DESC: Drosophila OR13a (Drosophila melanogaster)
Construct: expressed in transfected cells
Sequence (Q9VXL0 whole entry, one chain of several): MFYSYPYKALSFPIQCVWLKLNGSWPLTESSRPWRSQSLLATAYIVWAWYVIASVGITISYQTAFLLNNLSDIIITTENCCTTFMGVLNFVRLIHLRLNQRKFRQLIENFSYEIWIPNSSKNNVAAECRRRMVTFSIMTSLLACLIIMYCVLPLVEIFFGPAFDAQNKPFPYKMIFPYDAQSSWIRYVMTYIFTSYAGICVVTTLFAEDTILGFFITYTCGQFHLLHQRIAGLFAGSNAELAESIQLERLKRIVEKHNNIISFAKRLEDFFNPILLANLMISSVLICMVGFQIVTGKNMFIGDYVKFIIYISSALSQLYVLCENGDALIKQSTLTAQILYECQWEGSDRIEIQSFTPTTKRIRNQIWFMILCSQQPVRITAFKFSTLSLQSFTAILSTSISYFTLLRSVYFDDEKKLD
ASSAY_TEXT: Calcium ion fluorescence (GCaMP6) assay, OR13a stable HEK293 cell line
Assay type: cell-based
PROTOCOL_CONDITIONS: OR13a cell line, VOC concentration 100 μM
Method: These VUAA1 normalized ∆F values were used to compare the different receptors and ligands. The concentration-dependent effect of the reference ligands on their cognate cell lines was examined in more detail. Twelve different ligand concentrations were measured on each cell line in an overall 0.01 μM to 100 μM concentration range with 5 repetitions with three technical replicates each time. […]
Give bare numbers.

As a guide, the following entries are already answered.
COMPOUND: CCCCCCCCCCCCCC [tetradecane]
RECORDED_MEASUREMENT: 0.00

COMPOUND: Cc1ccccc1 [toluene]
RECORDED_MEASUREMENT: 0.00

COMPOUND: Cc1ccccc1C [o-xylene]
RECORDED_MEASUREMENT: 0.00

COMPOUND: CC/C=C\CCOC(C)=O [Z-3-hexenyl acetate]
RECORDED_MEASUREMENT: 0.09

API: the following record is the query input.
Sample CCCOC(C)=O [propyl acetate] ; OR13a response (VUAA1-normalized) at 100 μM observed: 0.00

---

TARGET_DESC: Drosophila OR71a (Drosophila melanogaster, UniProt Q9VUK5)
Construct: expressed in transfected cells
Sequence (Q9VUK5 whole entry, one chain of several): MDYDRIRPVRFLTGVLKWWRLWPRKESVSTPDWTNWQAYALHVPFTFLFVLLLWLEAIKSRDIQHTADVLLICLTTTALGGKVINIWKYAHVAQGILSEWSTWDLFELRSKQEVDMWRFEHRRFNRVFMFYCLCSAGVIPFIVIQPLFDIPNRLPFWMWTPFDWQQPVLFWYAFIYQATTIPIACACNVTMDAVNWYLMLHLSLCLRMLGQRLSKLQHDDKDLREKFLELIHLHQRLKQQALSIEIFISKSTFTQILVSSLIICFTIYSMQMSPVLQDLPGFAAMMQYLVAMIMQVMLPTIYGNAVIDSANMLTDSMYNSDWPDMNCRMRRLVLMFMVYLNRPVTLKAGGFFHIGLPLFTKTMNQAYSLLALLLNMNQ
ASSAY_TEXT: Calcium ion fluorescence (GCaMP6) assay, OR71a stable HEK293 cell line
Type: cell-based
PROTOCOL_CONDITIONS: OR71a cell line; cc. 100 µM; VUAA1-normalized response, mean of biological replicates
Method: These VUAA1 normalized ∆F values were used to compare the different receptors and ligands. The concentration-dependent effect of the reference ligands on their cognate cell lines was examined in more detail. Twelve different ligand concentrations were measured on each cell line in an overall 0.01 μM to 100 μM concentration range with 5 repetitions with three technical replicates each time. […]
METRIC: Average response

As a guide, the following entries are already answered.
COMPOUND: CCCCCC(O)CC (centres unmarked)
RECORDED_MEASUREMENT: 0.00

COMPOUND: C=CCc1ccc(O)c(OC)c1
RECORDED_MEASUREMENT: 0.0247

COMPOUND: CCCCCC(C)=O
RECORDED_MEASUREMENT: 0.05

COMPOUND: CCOC(=O)c1ccccc1 [ethyl benzoate]
RECORDED_MEASUREMENT: 0.11

COMPOUND: C=C1CC/C=C(\C)CC[C@@H]2[C@@H]1CC2(C)C [(-)-trans-caryophyllene]
RECORDED_MEASUREMENT: 0.00

COMPOUND: CCCOC(C)=O [propyl acetate]
RECORDED_MEASUREMENT: 0.00

Hi, could you look up Average response for each item in my list?
1. CCCCOC(=O)CC [butyl propanoate]
2. Cc1ccccc1
3. CCCC(O)CC (centres unmarked)
4. CCOC(=O)CC [ethyl propionate]
5. Cc1ccccc1C
6. C=C1CCC2CC1C2(C)C (centres unmarked)
7. CCCCCCCCCCC

Output line:
0.03
0.00
0.0155
0.00
0.00
0.00
0.00847

Sample Cc1cccc(O)c1 ; Average response observed: 0.0133

---

TARGET_DESC: Drosophila OR49b (Drosophila melanogaster, UniProt Q9V6H2)
Construct: expressed in transfected cells
Sequence (Q9V6H2 1-375): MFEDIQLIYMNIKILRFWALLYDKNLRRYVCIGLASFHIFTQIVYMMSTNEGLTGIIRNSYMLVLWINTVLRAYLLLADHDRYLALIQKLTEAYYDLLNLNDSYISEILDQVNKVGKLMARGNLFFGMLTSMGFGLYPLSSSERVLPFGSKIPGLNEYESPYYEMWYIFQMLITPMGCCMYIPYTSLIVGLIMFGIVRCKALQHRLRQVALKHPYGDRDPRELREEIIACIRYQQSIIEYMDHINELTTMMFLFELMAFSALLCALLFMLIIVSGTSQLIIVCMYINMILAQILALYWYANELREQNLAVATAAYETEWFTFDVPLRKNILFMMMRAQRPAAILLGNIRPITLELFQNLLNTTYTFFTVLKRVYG
Sequence (Q9VNB5 1-486 partner): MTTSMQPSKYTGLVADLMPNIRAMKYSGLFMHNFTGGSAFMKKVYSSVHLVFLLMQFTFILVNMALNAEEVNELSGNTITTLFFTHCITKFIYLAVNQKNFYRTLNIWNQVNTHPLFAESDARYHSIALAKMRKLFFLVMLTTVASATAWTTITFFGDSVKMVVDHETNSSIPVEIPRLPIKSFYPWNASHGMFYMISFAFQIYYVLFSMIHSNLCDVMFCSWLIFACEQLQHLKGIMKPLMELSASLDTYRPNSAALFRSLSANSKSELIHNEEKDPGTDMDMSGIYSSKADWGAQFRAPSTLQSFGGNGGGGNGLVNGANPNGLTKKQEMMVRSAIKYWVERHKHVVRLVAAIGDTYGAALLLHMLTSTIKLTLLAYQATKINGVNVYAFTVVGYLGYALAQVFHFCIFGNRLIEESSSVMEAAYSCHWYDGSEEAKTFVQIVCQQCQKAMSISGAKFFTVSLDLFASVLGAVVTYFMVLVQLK
ASSAY_TEXT: cell-based
PROTOCOL_CONDITIONS: OR49b cell line; odorant cc. 10 µM; mean of biological replicates
Please respond with reported Average response for every item in the list.
Give bare numbers.

MOLECULE: CCCCCC(C)O (stereo not shown)
Average response: 0.00
//
MOLECULE: CC1=CCC[C@@]2(C)[C@@H]3CC[C@]12CC3(C)C [(−)-α-neoclovene]
Average response: 0.00
//
MOLECULE: CCCCCCCCCCC
Average response: 0.00
//
MOLECULE: OCCc1ccccc1
Average response: 0.00
//
MOLECULE: O=Cc1ccccc1
Average response: 0.0283

Hi, could you look up Average response for each item in my list?
1. CCCCCC(=O)CC
2. CCCC(O)CC (stereo not shown)

Output line:
[0.17, 0.20]
